Test: Half life in Sprague-Dawley rat at 3 mg/kg, iv measured up to 1280 mins by HPLC-MS/MS analysis
Type: ADME, organism-based
Conditions: in vivo
Value Type: t1/2
Note: a bare number is incomplete; add the unit.

Q: What value of t1/2 has been reported for the following compound? "Cc1cc(C)n(Cc2ccc(C(=O)Nc3ccc(Cl)c(Cl)c3)s2)n1"
Ans: 1.7 h

###

Molecular target: Glutamate NMDA receptor (Mus musculus) (UniProt P35436+Q91ZU9+Q03391+P35438+Q01097+Q01098+A2AIR5)
Assay: Positive allosteric modulation of C57BL/6 mouse NMDA receptor assessed as fold change in compound potentiated NMDA-induced current relative to NMDA current alone at 30 uM measured after 15 to 30 mins by patch-clamp method
Type: tissue-based
Settings: Brain, filed as positive allosteric modulator, time 15-30 min
Value Type: fold change (FC)
// keep it numeric: no unit symbol after the value

Q: Give the measured fold change (FC) of "Cc1cc(C)n(Cc2ccc(C(=O)Nc3ccc(Br)cc3C)o2)n1" .
Ans: 32

Q: Next molecule up: "Cc1cc(C)n(Cc2ccc(C(=O)Nc3ccc(F)cc3C)o2)n1"
Ans: 1.9

Q: Note, next up: "COC(=O)c1cc(Cl)ccc1NC(=O)c1ccc(Cn2nc(C)cc2C)o1"
Ans: 0.1

Q: Do the same for "Cc1cc(Br)ccc1NC(=O)c1ccc(Cn2nc(C(F)(F)F)cc2C(F)(F)F)o1" please
Ans: 10.7

Q: // next record "Cc1cc(C)n(Cc2ccc(C(=O)Nc3ccc(-c4ccccc4)cc3)o2)n1"
Ans: 6.7

Q: Now the same for "Cc1cc(C)n(Cc2ccc(C(=O)Nc3ccccc3C)o2)n1"
Ans: 1.2

Q: How about this molecule: "Cc1cc(C)n(Cc2ccc(C(=O)Nc3ccc(Br)cc3)o2)n1"
Ans: 1.2

Q: Next molecule up: "Cc1cc(C)n(Cc2ccc(C(=O)Nc3ccc(Cl)cc3C(=O)NCCCCO)o2)n1"
Ans: 1.7

Q: Do the same for "Cc1cc(C)n(Cc2ccc(C(=O)Nc3ccc4cc[nH]c4c3)s2)n1" please
Ans: 8.9

Q: Also, "Cc1cc(C)n(Cc2ccc(C(=O)Nc3ccc4cnccc4c3)s2)n1" please.
Ans: -0.2
